Origin of measurements: patent US3966779A

# TEST METHOD NOTES: Acute toxicity, 7-day test, method of Litchfield and Wilcoxon
# ASSAY CONDITIONS: mouse, in vivo, iv, mice
ENDPOINT NAME: LD50 at 168 h (mg/kg)
Quick reminder: number only, in mg/kg, skip the unit.

Query block: Look up and state reported LD50 at 168 h for `CCCCCCCCCC(=O)Oc1cc(C(C)C)c(OCCN(C)C)cc1C`
Result block: 96

Query block: Look up and state reported LD50 at 168 h for CC(=O)Oc1cc(C(C)C)c(OCCN(C)C)cc1C [Compound A, reference compound]
Result block: 48

Query block: Look up and state reported LD50 at 168 h for `Cc1cc(OCCN(C)C)c(C(C)C)cc1OC(=O)OC(C)C`
Result block: 44

Query block: Look up and state reported LD50 at 168 h for `CCCCCCCC(=O)Oc1cc(C(C)C)c(OCCN(C)C)cc1C`
Result block: 25
